Provide the recorded Activity for the entries that follow.
Tested on: Mycobacterium tuberculosis
Assay protocol: Inhibition of His-tagged Mycobacterium tuberculosis DXR expressed in Escherichia coli BL21(DE3) using DXP as substrate assessed as residual activity at 100 uM preincubated for 10 mins followed by NADPH and substrate addition by spectrophotometric analysis relative to control
Give bare numbers, in %.

Answer with the recorded Activity for the molecule listed here: `CC(=O)N(CCCP(=O)(O)O)OCCCc1ccccc1`
77.5

Answer with the recorded Activity for the molecule listed here: `CC(=O)N(CCCP(=O)(O)O)OCC1CCCCC1`
83.5

Answer with the recorded Activity for the molecule listed here: `CC(=O)N(CCCP(=O)(O)O)OCCc1ccccc1`
81.5

---
Answer with the recorded Activity for the molecule listed here: `O=C(C1CCCCC1)N(O)CCCP(=O)(O)O`
80
